Attribution: paper PMC10010340

- experimentalProtocol: In vivo pharmacokinetics
- Parameters: species or system mouse (male CD1)
- conditionSet: male, CD1, in vivo, po; mouse, 5 mg/kg p.o.
measurementName: Cmax (µM)
Numbers only, in µM.

Problem: Give the measured Cmax for Cc1c(-c2ccnc(C(F)(F)F)c2)ncn1CC(=O)Nc1ccc(-c2cnccn2)cn1 [RXC004]
Solution: 7.6

###

- targetDesc: UniProt P10635
- Sequence (P10635 whole entry): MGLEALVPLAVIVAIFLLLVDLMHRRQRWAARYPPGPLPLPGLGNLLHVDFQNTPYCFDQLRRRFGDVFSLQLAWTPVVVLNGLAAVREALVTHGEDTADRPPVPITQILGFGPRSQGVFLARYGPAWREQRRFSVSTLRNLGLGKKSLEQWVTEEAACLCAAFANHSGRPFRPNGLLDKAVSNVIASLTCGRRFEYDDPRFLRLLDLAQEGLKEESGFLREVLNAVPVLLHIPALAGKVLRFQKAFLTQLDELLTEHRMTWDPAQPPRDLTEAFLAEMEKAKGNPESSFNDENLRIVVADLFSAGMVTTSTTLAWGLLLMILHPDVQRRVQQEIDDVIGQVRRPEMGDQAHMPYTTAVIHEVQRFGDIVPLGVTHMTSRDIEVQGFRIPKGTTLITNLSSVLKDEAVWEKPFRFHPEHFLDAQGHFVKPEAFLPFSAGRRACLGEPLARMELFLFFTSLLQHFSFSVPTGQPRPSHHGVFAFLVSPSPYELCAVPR
measurementName: IC50

Problem: Indicate its recorded IC50; the compound in question is "Cc1c(-c2ccnc(C(F)(F)F)c2)ncn1CC(=O)Nc1ccc(-c2cnccn2)cn1"
Solution: > 25 µM

###

- targetDesc: CYP3A4 (Homo sapiens, UniProt P08684)
- Sequence (P08684 whole entry): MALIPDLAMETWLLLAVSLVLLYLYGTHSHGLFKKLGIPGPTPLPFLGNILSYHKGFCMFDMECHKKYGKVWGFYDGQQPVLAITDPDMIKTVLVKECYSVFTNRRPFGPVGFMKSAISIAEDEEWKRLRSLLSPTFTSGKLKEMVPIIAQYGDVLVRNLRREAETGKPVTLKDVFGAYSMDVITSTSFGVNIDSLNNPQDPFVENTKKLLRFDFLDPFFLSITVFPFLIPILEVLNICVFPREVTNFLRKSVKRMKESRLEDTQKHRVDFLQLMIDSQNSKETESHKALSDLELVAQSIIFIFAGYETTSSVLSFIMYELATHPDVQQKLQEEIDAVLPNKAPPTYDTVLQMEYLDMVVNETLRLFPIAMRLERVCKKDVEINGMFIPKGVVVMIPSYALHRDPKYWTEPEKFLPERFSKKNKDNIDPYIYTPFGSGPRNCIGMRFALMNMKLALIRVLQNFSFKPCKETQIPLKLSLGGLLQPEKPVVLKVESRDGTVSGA
measurementName: IC50

Problem: Identify IC50 associated with the molecule "Cc1c(-c2ccnc(C(F)(F)F)c2)ncn1CC(=O)Nc1ccc(-c2cnccn2)cn1"
Solution: > 25 µM

###

- experimentalProtocol: In vivo pharmacokinetics
- Parameters: species or system mouse (male CD1)
- conditionSet: male, CD1, in vivo; mouse, dose i.v./p.o. 2/5 mg/kg; read-out: T½ (converted)
measurementName: half-life

Problem: Give me measured half-life, please, for this molecule: "Cc1c(-c2ccnc(C(F)(F)F)c2)ncn1CC(=O)Nc1ccc(-c2cnccn2)cn1"
Solution: 1.8 h

###

- experimentalProtocol: In vivo pharmacokinetics
- Design: species or system mouse (male CD1)
- conditionSet: male, CD1, in vivo, intravenous, 2 mg/kg; mouse, dose i.v./p.o. 2/5 mg/kg; read-out: Vss
measurementName: Vd (L/kg)
One number for each entry, in L/kg.

Problem: Using the record for Cc1c(-c2ccnc(C(F)(F)F)c2)ncn1CC(=O)Nc1ccc(-c2cnccn2)cn1 [RXC004] , state its measured Vd.
Solution: 0.4

###

- experimentalProtocol: In vivo pharmacokinetics
- Design: species or system rat (male Sprague Dawley)
- conditionSet: male, Sprague Dawley, in vivo, intravenous, 2 mg/kg; rat, dose i.v./p.o. 2/5 mg/kg; read-out: Vss
measurementName: Vd (L/kg)
Give bare numbers, in L/kg.

Problem: Note down Vd recorded for "Cc1c(-c2ccnc(C(F)(F)F)c2)ncn1CC(=O)Nc1ccc(-c2cnccn2)cn1"
Solution: 0.64

###

- System: WiDR cells
- experimentalProtocol: Wnt-responsive gene expression (qPCR)
- Type: cell-based, human
- conditionSet: Homo sapiens, WiDr; read-out: IC50, c-Myc mRNA expression
measurementName: IC50

Problem: Give the value of IC50 reported for the following: Cc1c(-c2ccnc(C(F)(F)F)c2)ncn1CC(=O)Nc1ccc(-c2cnccn2)cn1 [RXC004]
Solution: > 10 µM
